system: SF-539 CNS; experiment: NCI tumour cell line growth inhibition, 48 h
Below, each of the compounds is paired with its reported TGI value.
The response must be a number in µM with no trailing unit.

For orientation, consider the following solved cases.
N#Cc1c(-c2ccc(Cl)cc2)c(-c2ccc(Cl)cc2)nn(CCOC(=O)CCC(=O)O)c1=O :: 1.49
O=c1[nH]ccc2nc(-c3ccc(CN4CCC(c5nc(-c6ccccn6)n[nH]5)CC4)cc3)c(-c3ccccc3)cc12 :: 20.8
CCC[CH2][Sn]1([CH2]CCC)[O]C(=O)c2cccc(OC)c2[O]1 :: 1.42
O=c1oc2ccc(F)cc2c(=O)n1-c1ccc(Cl)cc1F :: 6.79
O=C1CSC(=S)N1Cc1cccnc1 :: 23.4

For `CCN(CC)CCCNc1nc2ccccc2c2c(=O)c3cc(Cl)ccc3sc12` the compound record lists TGI as 3.35

For `Cc1ccc(S(=O)(=O)N/N=C/c2oc(-c3ccccc3Cl)c(-c3ccccc3Cl)c2[N+](=O)[O-])cc1` the compound record lists TGI as 46.1

For Nc1ccc(C(=O)NN2C(=O)C(Cl)C2c2ccc([N+](=O)[O-])cc2)cc1 (configuration not stated) the compound record lists TGI as 25.6

For `Oc1ccc2ccccc2c1C(c1ccc(Cl)cc1)c1c(O)ccc2ccccc12` the compound record lists TGI as 31.4

----------
test system: NCI-H522 lung; assay: NCI tumour cell line growth inhibition, 48 h; in the data active means GI50 below about 0.43 µM; inactive means the rest
Response enum: Y for active, N for inactive

Record excerpt, results attached:
O=c1oc2ccc(F)cc2c(=O)n1-c1ccc(Cl)cc1F :: Y
O=C1/C(=C/c2ccc([N+](=O)[O-])o2)Oc2ccccc21 :: Y
c1ccc2c(-c3nc4ccccc4[nH]3)cccc2c1 :: N

Query :: Recorded test outcome, item `COc1cc(-n2cc(-c3ccc(F)cc3)[nH]c2=S)cc(OC)c1OC`
Result :: N

Query :: Recorded test outcome, item `COc1ccc(Cn2cc3c(c2-c2ccc(O)cc2)CCc2cnoc2-3)cc1`
Result :: Y

Query :: Recorded test outcome, item `COc1cc(C(=O)N2CCN(c3ccccc3OC)CC2)c(N)cc1OCc1ccccc1`
Result :: N

Query :: Recorded test outcome, item `CCC[CH2][Sn]1([CH2]CCC)[O]C(=O)c2cccc(OC)c2[O]1`
Result :: Y

Query :: Recorded test outcome, item `COc1cc(OC)c2cc(C(=O)O)c(=O)oc2c1`
Result :: N

----------
Below, each of the compounds is paired with its reported TGI value.
system: OVCAR-5 ovarian; assay: NCI tumour cell line growth inhibition, 48 h

For orientation, consider the following solved cases.
COc1cc(/C=C/C(=O)C(C(=O)/C=C/c2ccc(OC(=O)CCNc3nnc(C)s3)c(OC)c2)C(=O)CCNc2nnc(C)s2)ccc1OC(=O)CCNc1nnc(C)s1 :: 7.12 µM
COc1ccc2c(c1)O[C@H]1c3ccc(O)cc3OC[C@@H]21 :: > 100 µM
CC(=O)c1c(O)ccc2c(C)c(C(=O)O)oc12 :: > 100 µM

Entry `O=c1oc2cccnc2n1CCN1CCN(c2ccc(Oc3ccccc3)cc2)CC1` , OVCAR-5 ovarian data, TGI value: > 100 µM

Entry `CCOC(=O)NC(NNc1ccc([N+](=O)[O-])cc1[N+](=O)[O-])(C(F)(F)F)C(F)(F)F` , OVCAR-5 ovarian data, TGI value: > 100 µM

Entry COC(=O)c1c(C)cc2c(c1O)C1(O)C(=O)c3cc4c(c(O)c3C(=O)C1(OC)C(O)C2)C(=O)C=C(NC1OC(C)C(OC)C(O)C1OC)C4=O (stereo not given) , OVCAR-5 ovarian data, TGI value: 0.401 µM

Entry `CCOCC(=O)N[C@H]1CCc2cc(OC(=O)COCC)c(OC)c(OC)c2-c2ccc(SC)c(=O)cc21` , OVCAR-5 ovarian data, TGI value: > 100 µM

Entry `CCC[CH2][Sn]1([CH2]CCC)[O]C(=O)c2cccc(OC)c2[O]1` , OVCAR-5 ovarian data, TGI value: 2.9 µM

Entry `c1ccc(SC(Sc2ccccc2)c2ccc3c(c2)OCO3)cc1` , OVCAR-5 ovarian data, TGI value: > 100 µM

Entry CC(C)=CC(O)C/C(C)=C/CC/C(C)=C/CCC1(C)C(CCCO)/C(=C(/C)C=O)CCC1(C)O (stereo not given) , OVCAR-5 ovarian data, TGI value: > 100 µM

----------
Below, each of the compounds is paired with its reported TGI value.
tested on: MDA-MB-435; assay: NCI tumour cell line growth inhibition, 48 h

For `COc1ccccc1-c1nc2ccccc2c(=O)[nH]1` the compound record lists TGI as > 100 µM

For O=C1/C(=C/c2ccc(Cl)cc2)N=C(c2ccccc2)N1C1Nc2cc3c(cc2S1)NC(N1C(=O)/C(=C/c2ccc(Cl)cc2)N=C1c1ccccc1)S3 (stereo not drawn) the compound record lists TGI as > 100 µM

For NC1=NN(c2ccccc2)C2(c3ccncc3C(=O)O)C1C(N)=NN2c1ccccc1 (stereo not drawn) the compound record lists TGI as > 100 µM

----------
Below, each of the compounds is paired with its reported TGI value.
test system: SK-MEL-28 melanoma; experiment: NCI tumour cell line growth inhibition, 48 h

For orientation, consider the following solved cases.
CCCCCCCCCCCCCC(=O)OC(/C=C/C(C)C)C(O)C(O)C(OC)C(=O)NC1CCCCNC1=O (stereo not drawn) :: 5.11 µM
COc1ccc(N(C)c2nc(Cl)nc3ccn(C)c23)cc1 :: > 100 µM
Cn1ccnc1C(=O)/C=C/c1ccc(C(=O)Nc2ccccc2O)cc1 :: 5.07 µM
COc1ccc(CC2NCCc3cc(OC)c(OC)cc32)cc1 (stereo not drawn) :: > 100 µM
O=C(O)CSc1nnc(CCCCCCCCc2nnc(SCC(=O)O)o2)o1 :: > 100 µM

For CC1(C)CCCCCC(C)(CCCCCCCCCCCO)C1=O (stereo not drawn) the compound record lists TGI as 32 µM

For COP(=O)(OC)C(O)/C=C(\Cl)c1ccc(Cl)cc1 (stereo not drawn) the compound record lists TGI as > 100 µM

For `O=c1[nH]cc(N(CCCl)CCCl)c(=O)[nH]1` the compound record lists TGI as 204 µM

For Nc1ccc(C(=O)NN2C(=O)C(Cl)C2c2ccc([N+](=O)[O-])cc2)cc1 (stereo not drawn) the compound record lists TGI as 20.1 µM

For `CC(C)CCNC(=O)c1ccc(CNC(=O)/C=C/c2csc(-c3ccccc3)n2)cc1` the compound record lists TGI as > 100 µM

For `O=C(Nc1cccnc1)c1cccc([N+](=O)[O-])c1` the compound record lists TGI as > 100 µM

For `O=C1/C(=C/c2ccc([N+](=O)[O-])o2)Oc2ccccc21` the compound record lists TGI as 3.2 µM

For `CC(=O)[O-].CC(=O)[O-].O=C(N/N=C/c1cc(Cl)cc(Cl)c1[OH2+])c1ccncc1.[Zn+2]` the compound record lists TGI as > 100 µM

For `COc1cc2c3c(n(CCCNC(=O)OCC4c5ccccc5-c5ccccc54)c(=O)c2cc1OC)-c1cc2c(cc1C3=O)OCO2` the compound record lists TGI as > 100 µM

For CC1C=CC(C)C2(O)C(=O)NC(O)C12 (stereo not drawn) the compound record lists TGI as > 100 µM

For `COc1cc(OC)c2cc(C(=O)O)c(=O)oc2c1` the compound record lists TGI as > 100 µM

For `O=C1NC(N/N=C/c2ccccc2)=N/C1=C\c1cccs1` the compound record lists TGI as 37.7 µM

For N#CCC12CC=CCC1=C(O)C(=O)c1ccc(O)cc12 (stereo not drawn) the compound record lists TGI as > 100 µM

For O=C(O)C(Cc1cnc[nH]1)N=Cc1nc(-c2ccccc2)oc1O (stereo not drawn) the compound record lists TGI as > 100 µM

For CCN(CC)CCC(=O)N1CCc2c([nH]c3ccccc23)C1c1cccnc1 (stereo not drawn) the compound record lists TGI as > 100 µM

For `O=C1c2ccccc2C(=O)c2c1oc(=O)c1ccccc21` the compound record lists TGI as 17 µM

For `O=Cc1[nH]c(=O)[nH]c(=O)c1CCl` the compound record lists TGI as > 100 µM

For CC1C2(C)OC(=N)C(C#N)(C(c3ccco3)O2)C1(C#N)C#N (stereo not drawn) the compound record lists TGI as 46.2 µM

----------
system: LOX IMVI melanoma; test: NCI tumour cell line growth inhibition, 48 h
parameter: TGI

For orientation, consider the following solved cases.
NC(N)=NS(=O)(=O)c1ccc(Nc2c3ccccc3nc3c(C(=O)NC(CO)(CO)CO)cccc23)cc1 :: > 100 µM
Cn1ccnc1C(=O)/C=C/c1ccc(C(=O)Nc2ccccc2O)cc1 :: 3.12 µM
CC(=O)[O-].CC(=O)[O-].O=C(N/N=C/c1cc(Cl)cc(Cl)c1[OH2+])c1ccncc1.[Zn+2] :: > 100 µM
O=c1[nH]cc(N(CCCl)CCCl)c(=O)[nH]1 :: 165 µM

For `COCOCc1cc(OCc2ccccc2)c(OC)cc1Br` the molecule record lists TGI as > 100 µM

For `COc1cc2c(oc(=O)c3cc4ccoc4c(OC)c32)c2cccc(O)c12` the molecule record lists TGI as > 100 µM
